# tested_on: IRAK4 (Homo sapiens)
# Construct: endogenous in cells; host or cells: OCI-LY10
# Sequence (Q9NWZ3 whole entry): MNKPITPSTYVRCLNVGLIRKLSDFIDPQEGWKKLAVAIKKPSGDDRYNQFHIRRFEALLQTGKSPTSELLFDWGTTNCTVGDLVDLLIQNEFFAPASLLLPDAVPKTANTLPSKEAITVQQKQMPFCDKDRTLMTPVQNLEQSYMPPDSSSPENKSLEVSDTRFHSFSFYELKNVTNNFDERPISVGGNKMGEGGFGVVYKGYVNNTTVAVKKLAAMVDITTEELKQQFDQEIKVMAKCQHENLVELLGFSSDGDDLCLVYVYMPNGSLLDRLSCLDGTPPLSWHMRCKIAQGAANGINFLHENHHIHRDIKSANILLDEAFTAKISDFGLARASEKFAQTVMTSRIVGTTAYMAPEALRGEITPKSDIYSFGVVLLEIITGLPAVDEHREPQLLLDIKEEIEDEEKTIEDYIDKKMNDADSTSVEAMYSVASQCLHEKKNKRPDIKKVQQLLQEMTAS
# assay_explanation: IRAK4 MSD Degradation in OCI-LY10
# Type: cell-based
# cond: OCI-LY10 cells, Meso Scale Discovery, incubated 4 to 24 hours
# reported DC50; entries follow

# compound, tested_on, DC50
records = [
    ("COc1cc2nn([C@H]3CC[C@H](CN4CCC(O[C@H]5C[C@H](c6cccc7c6n(C)c(=O)n7C6CCC(=O)NC6=O)C5)CC4)CC3)cc2cc1NC(=O)c1cccc(C(F)(F)F)n1 (stereo partly shown) [I-386]", "IRAK4 (Homo sapiens)", "10 to 50 nM"),
    ("COc1cc2nn([C@H]3CC[C@H](CN4CCN(c5cccc6c5n(C)c(=O)n6C5CCC(=O)NC5=O)CC4)CC3)cc2cc1NC(=O)c1cncc(C(F)(F)F)n1 (stereo partly shown) [I-297]", "IRAK4 (Homo sapiens)", "< 10 nM"),
    ("COc1cncc(C(=O)Nc2cc3sc([C@H]4CC[C@H](CN(C)CCCCNc5cccc6c5C(=O)N(C5CCC(=O)NC5=O)C6=O)CC4)nc3cc2OC)c1 (stereo partly shown) [I-449]", "IRAK4 (Homo sapiens)", "> 200 nM"),
    ("COc1cc2nn([C@H]3CC[C@H](CN4CCCN(c5cccc6c5n(C)c(=O)n6C5CCC(=O)NC5=O)CC4)CC3)cc2cc1NC(=O)c1cccc(C(F)(F)F)n1 (stereo partly shown) [I-255]", "IRAK4 (Homo sapiens)", "< 10 nM"),
    ("COc1cc(NC(=O)c2cccc(C(F)(F)F)n2)cc2cn([C@H]3CC[C@H](CN4CCC(c5cccc6c(N7CCC(=O)NC7=O)cncc56)CC4)CC3)nc12 [I-221]", "IRAK4 (Homo sapiens)", "< 10 nM"),
    ("COc1cc2nn([C@H]3CC[C@H](CN4CCN(c5c(OC)ccc6c(N7CCC(=O)NC7=O)cncc56)CC4)CC3)cc2cc1NC(=O)c1cccc(C(F)(F)F)n1 [I-332]", "IRAK4 (Homo sapiens)", "10 to 50 nM"),
    ("CN(C[C@H]1CC[C@H](n2cc3cc(NC(=O)c4cccc(C(F)(F)F)n4)ccc3n2)CC1)C1CCN(c2ccc3c(N4CCC(=O)NC4=O)cncc3c2)CC1 [I-319]", "IRAK4 (Homo sapiens)", "10 to 50 nM"),
    ("COc1cc2nn([C@H]3C[C@H](CN4CCC(c5c(Cl)ccc6c5n(C)c(=O)n6C5CCC(=O)NC5=O)CC4)C3)cc2cc1NC(=O)c1cccc(C(F)(F)F)n1 (stereo partly shown) [I-87]", "IRAK4 (Homo sapiens)", "< 10 nM"),
    ("Cn1c(=O)n(C2CCC(=O)NC2=O)c2cccc(N3CCN(C[C@H]4CC[C@H](n5cc6cc(NC(=O)c7cccc(C(F)(F)F)n7)c(C#N)cc6n5)CC4)CC3)c21 (stereo partly shown) [I-363]", "IRAK4 (Homo sapiens)", "< 10 nM"),
    ("Cn1c(=O)n(C2CCC(=O)NC2=O)c2cccc(C3CCN(C(=O)[C@H]4CC[C@H](n5cc6cc(NC(=O)c7cccc(C(F)(F)F)n7)ccc6n5)CC4)CC3)c21 (stereo partly shown) [I-94]", "IRAK4 (Homo sapiens)", "> 200 nM"),
    ("COc1cc2nn([C@H]3CC[C@H](CN(C)C4CCN(c5cccc6c5n(C)c(=O)n6C5CCC(=O)NC5=O)CC4)CC3)cc2cc1NC(=O)c1cncc(C(F)(F)F)c1 (stereo partly shown) [I-130]", "IRAK4 (Homo sapiens)", "< 10 nM"),
    ("COc1cc2nn([C@H]3CC[C@H](CN4CCC(c5cccc6c5n(C)c(=O)n6C5CCC(=O)NC5=O)CC4)CC3)cc2cc1NC(=O)c1ccccc1F (stereo partly shown) [I-174]", "IRAK4 (Homo sapiens)", "< 10 nM"),
    ("COc1cc2nc([C@H]3CC[C@H](CN(C)CCCCNc4cccc5c4C(=O)N(C4CCC(=O)NC4=O)C5=O)CC3)sc2cc1NC(=O)c1cncc(F)c1 (stereo partly shown) [I-479]", "IRAK4 (Homo sapiens)", "> 200 nM"),
    ("CCOc1cc2nn([C@H]3CC[C@H](CN4CCN(c5cccc6c5n(C)c(=O)n6C5CCC(=O)NC5=O)CC4)CC3)cc2cc1NC(=O)c1cccc(C(F)(F)F)n1 (stereo partly shown) [I-294]", "IRAK4 (Homo sapiens)", "10 to 50 nM"),
    ("CC(C)(O)c1cc2nc([C@H]3CC[C@H](C(=O)N4CCN(CCNc5cccc6c5C(=O)N(C5CCC(=O)NC5=O)C6=O)CC4)CC3)sc2cc1NC(=O)c1cccc(C#N)n1 (stereo partly shown) [I-434]", "IRAK4 (Homo sapiens)", "50 to 100 nM"),
    ("COc1cc2nn([C@H]3CC[C@H](CN4CCN(c5cc(F)cc6c(N7CCC(=O)NC7=O)cncc56)CC4)CC3)cc2cc1NC(=O)c1cccc(C(F)(F)F)n1 [I-413]", "IRAK4 (Homo sapiens)", "< 10 nM"),
    ("Cn1c(=O)n(C2CCC(=O)NC2=O)c2cccc(N3C[C@@H]4C[C@H]3CN4C[C@H]3CC[C@H](n4cc5cc(NC(=O)c6cccc(C(F)(F)F)n6)ccc5n4)CC3)c21 (stereo partly shown) [I-423]", "IRAK4 (Homo sapiens)", "< 10 nM"),
    ("COc1cc2nn([C@H]3CC[C@H](CN4CCC(c5ccc6c(N7CCC(=O)NC7=O)cncc6c5)CC4)CC3)cc2cc1NC(=O)c1cccc(C(F)(F)F)n1 [I-322]", "IRAK4 (Homo sapiens)", "< 10 nM"),
    ("CN(C[C@H]1CC[C@H](n2cc3cc(NC(=O)c4cncc(C#N)c4)c(OC(F)(F)F)cc3n2)CC1)C1CCN(c2cccc3c2n(C)c(=O)n3C2CCC(=O)NC2=O)CC1 (stereo partly shown) [I-249]", "IRAK4 (Homo sapiens)", "> 200 nM"),
    ("COc1cc2nn([C@H]3CC[C@H](CN(C)C4CCN(c5c(C)ccc6c5n(C)c(=O)n6C5CCC(=O)NC5=O)CC4)CC3)cc2cc1NC(=O)c1cccc(C(F)(F)F)n1 (stereo partly shown) [I-40]", "IRAK4 (Homo sapiens)", "10 to 50 nM"),
    ("CN(CCNc1cccc2c1C(=O)N(C1CCC(=O)NC1=O)C2=O)C(=O)[C@H]1CC[C@H](c2nc3cc(C(C)(C)O)c(NC(=O)c4cccc(C(F)(F)F)n4)cc3s2)CC1 (stereo partly shown) [I-488]", "IRAK4 (Homo sapiens)", "100 to 200 nM"),
    ("CC(C)Nc1cc(-n2ccc3cc(C#N)cnc32)ncc1-c1cn([C@H]2CC[C@H](CN3CCC(c4cccc5c4n(C)c(=O)n5C4CCC(=O)NC4=O)CC3)CC2)nn1 (stereo partly shown) [I-159]", "IRAK4 (Homo sapiens)", "< 10 nM"),
]
